# experiment-description: C. albicans growth inhibition with fluconazole, primary screen, CaCi-2 strain, Alamar Blue fluorescence (AID 1979);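 also: all wells also contain fluconazole at 8 µg/ml as a sub-toxic cotreatment; 0% = median of DMSO wells and 100% = median of geldanamycin control wells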
# recorded-conditions: C. albicans CaCi-2 (fluconazole-resistant clinical isolate) + fluconazole, 48 h, stronger effect = higher value, concentration not given here
Out of some 300,000 compounds screened, about 1,700 (0.57%) were called active. Another 2% or so got no clear call; they are omitted. Many of the other results were omitted from the sample, so actives are more common in it than they were.
property-name: growth inhibition (%)
Give bare numbers, in %.

Worked cases, growth inhibition given:
[
  {
    "compound": "C/C(=N/O)c1ccc2ccc3ccccc3c2c1",
    "growth inhibition (%)": -4.17
  },
  {
    "compound": "COc1ccccc1C1=NCc2nnc(CSC)n2-c2ccc(Cl)cc21",
    "growth inhibition (%)": 2.88
  },
  {
    "compound": "Cc1cccc(-n2c(O)c(/C=N/N3CCOCC3)c(=O)[nH]c2=S)c1",
    "growth inhibition (%)": 12.2
  },
  {
    "compound": "Cc1cccc(-n2c(O)c(C=Nc3ccccc3N)c(=O)[nH]c2=O)c1",
    "growth inhibition (%)": 103
  },
  {
    "compound": "Cc1cccc(-n2c(O)c(C=NC34CN5CN(CN(C5)C3)C4)c(=O)[nH]c2=O)c1",
    "growth inhibition (%)": -4
  }
]

Report growth inhibition for each item below.
1. CNCC(O)c1cc(F)c(OCc2ccccc2)c(OCc2ccccc2)c1F (centres undefined)
2. Cc1nn(-c2ccccc2)c(C)c1NC(=O)COC(=O)Cc1ccccc1

-32.5
-2.49

Report growth inhibition for each item below.
1. CC1=CC(=Cc2sc3ccccc3[n+]2C)C=C(C)O1
2. O=C(Cc1ccccc1)N1CCN(C2CCCCCC2)CC1

1. 103
2. -12

These entries and their values trace back to PubChem BioAssay AID1979.
